Target: UniProtKB P52333
Sequence (P52333 795-1124): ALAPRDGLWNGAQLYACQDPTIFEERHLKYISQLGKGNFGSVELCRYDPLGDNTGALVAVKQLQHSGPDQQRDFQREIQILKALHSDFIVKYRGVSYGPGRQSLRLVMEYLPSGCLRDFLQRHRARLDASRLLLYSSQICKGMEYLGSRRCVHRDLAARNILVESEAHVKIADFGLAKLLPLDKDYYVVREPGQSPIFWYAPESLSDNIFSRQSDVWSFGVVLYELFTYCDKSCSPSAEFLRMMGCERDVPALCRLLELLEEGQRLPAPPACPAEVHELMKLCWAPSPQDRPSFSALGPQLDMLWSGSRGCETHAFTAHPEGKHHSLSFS
pIC50: −log10 of the molar value.
Quick rule: pIC50 of at least 6 means Condition met, below that means Condition not met.

| molecule | assigned category |
| --- | --- |
| O=C(Nc1nc2cccc(-c3ccc(CN4CCS(=O)(=O)CC4)cc3)n2n1)C1C[C@@H]1F (stereo partly shown) | Condition not met |
| O=C(Nc1nc2cccc(-c3ccc(CN4CCS(=O)(=O)CC4)cc3)n2n1)C1C[C@H]1F (stereo partly shown) | Condition not met |
| CC(C)S(=O)(=O)C1CCN(Cc2ccc(-c3cccc4nc(NC(=O)C5CC5)cn34)cc2)CC1 | Condition not met |
| O=C(Nc1nc2cccc(-c3ccc(CN4CCS(=O)(=O)CC4)cc3)n2n1)C1(F)CC1 | Condition not met |
| N#CCC1(n2cc(-c3cccc4nc(NC(=O)C5CC5)cn34)cn2)CCC(C(F)(F)F)CC1 (stereo not shown) | Condition met |
| O=C(Nc1nc2cccc(-c3ccc(CN4CCS(=O)(=O)CC4)cc3)n2n1)C1CC1(F)F (stereo not shown) | Condition not met |

###

Assay: Oral pharmacokinetic determination in mice
Assay type: in vivo, C57 mice
Conditions: mouse; male C57 mice, oral (gavage), dose 10 mg/kg, plasma; read-out: T½ (converted)

| structure as smiles | unit info | half-life |
| --- | --- | --- |
| CS(=O)(=O)C1CN(Cc2ccc(-c3cccc4nc(NC(=O)C5CC5)cn34)cc2)C1 | h | 1.31 |

###

Listing of recorded pIC50 by entry.
Target: JAK2 (Homo sapiens (Human), UniProt O60674)
Sequence (O60674 826-1132): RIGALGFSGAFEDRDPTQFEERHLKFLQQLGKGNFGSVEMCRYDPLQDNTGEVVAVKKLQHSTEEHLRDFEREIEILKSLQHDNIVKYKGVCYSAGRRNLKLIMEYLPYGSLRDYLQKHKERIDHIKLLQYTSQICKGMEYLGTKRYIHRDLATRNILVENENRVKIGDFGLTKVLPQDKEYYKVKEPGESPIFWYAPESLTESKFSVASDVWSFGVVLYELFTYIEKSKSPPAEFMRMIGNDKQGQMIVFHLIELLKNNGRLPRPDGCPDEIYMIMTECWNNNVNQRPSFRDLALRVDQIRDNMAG
pIC50: −log10 of the molar value.

| molecule | pIC50 |
| --- | --- |
| N#CCC1(n2cc(-c3cccc4nc(NC(=O)C5CC5)cn34)cn2)CCC(F)(F)CC1 [Compound 12] | 9.15 |
| O=C(Nc1nc2cccc(-c3ccc(OC4CCS(=O)(=O)CC4)cc3)n2n1)C1CC1 [Compound 19] | 7.04 |
| O=C(Nc1cn2c(-c3ccc(ON4CC[S+]([O-])CC4)cc3)cccc2n1)C1CC1 [Compound 21] | 6.23 |
| N#CCC(C1CCCC1)n1cc(-c2cccc3nc(NC(=O)C4CC4)nn23)cn1 (stereo not drawn) [Compound 11] | 8.20 |
| O=C(Nc1nc2cccc(-c3ccc(CN4CCS(=O)(=O)CC4)cc3)n2n1)C1C[C@@H]1F (stereo partly drawn) [Compound 27] | 6.38 |
| N#CCC(C1CC1)n1cc(-c2cccc3nc(NC(=O)C4CC4)cn23)cn1 (stereo not drawn) [Compound 2] | 7.87 |
| N#CCC(C1CCCC1)n1cc(-c2cccc3nc(NC(=O)C4CC4)cn23)cn1 (stereo not drawn) [Compound 1] | 8.38 |
| CCS(=O)(=O)C1CCN(Cc2ccc(-c3cccc4nc(NC(=O)C5CC5)cn34)cc2)CC1 [Compound 30] | 6.79 |
| N#CCC(CCC(F)(F)F)n1cc(-c2cccc3nc(NC(=O)C4CC4)cn23)cn1 (stereo not drawn) [Compound 10] | 8.91 |
| N#CCC1(n2cc(-c3cccc4nc(NC(=O)C5CC5)cn34)cn2)CCCCC1 [Compound 14] | 8.17 |
| O=C(Nc1nc2cccc(-c3ccc(CN4CCS(=O)(=O)CC4)cc3)n2n1)C1(F)CC1 [Compound 24] | 5.80 |
| O=C(Nc1cn2c(-c3ccc(CN4CCS(=O)(=O)CC4)cc3F)cccc2n1)C1CC1F (stereo not drawn) [Compound 29] | 6.77 |
| CCCC(CC#N)n1cc(-c2cccc3nc(NC(=O)C4CC4)cn23)cn1 (stereo not drawn) [Compound 5] | 8.74 |
| O=C(Nc1nc2cccc(-c3ccc(CN4CCS(=O)(=O)CC4)cc3)n2n1)C1C[C@H]1F (stereo partly drawn) [Compound 26] | 5.96 |
| CC(C)CS(=O)(=O)C1CCN(Cc2ccc(-c3cccc4nc(NC(=O)C5CC5)cn34)cc2)CC1 [Compound 33] | 6.33 |

###

Assay: Oral pharmacokinetic determination in mice
Type: in vivo, C57 mice
Details: mouse; male C57 mice, oral, dose 5 mg/kg, plasma
parameter: Tmax (min)

| compound | parameter | obs value |
| --- | --- | --- |
| O=C(Nc1nc2cccc(-c3ccc(CN4CCS(=O)(=O)CC4)cc3)n2n1)C1CC1 [Filgotinib, reference compound] | Tmax | 15 |

###

Test: Oral pharmacokinetic determination in mice
Type: in vivo, C57 mice
Details: mouse; male C57 mice, oral (gavage), dose 10 mg/kg, plasma; read-out: MRT(0-t)

| structure as smiles | unit info | MRT last |
| --- | --- | --- |
| CS(=O)(=O)C1CN(Cc2ccc(-c3cccc4nc(NC(=O)C5CC5)cn34)cc2)C1 | h | 1.6 |

###

Experiment: Oral pharmacokinetic determination in mice
Assay type: in vivo, C57 mice
Settings: mouse; male C57 mice, oral, dose 5 mg/kg, plasma; read-out: T½ (converted)

| compound | half-life |
| --- | --- |
| O=C(Nc1nc2cccc(-c3ccc(CN4CCS(=O)(=O)CC4)cc3)n2n1)C1CC1 [Filgotinib, reference compound] | 1.79 h |

###

Test: Oral pharmacokinetic determination in mice
Assay type: in vivo, C57 mice
Conditions: mouse; male C57 mice, oral, dose 5 mg/kg, plasma
parameter: Cmax (ng/mL)

| molecule | obs value |
| --- | --- |
| O=C(Nc1nc2cccc(-c3ccc(CN4CCS(=O)(=O)CC4)cc3)n2n1)C1CC1 [Filgotinib, reference compound] | 1710 |

###

Assay: Oral pharmacokinetic determination in mice
Format: in vivo, C57 mice
Settings: mouse; male C57 mice, oral (gavage), dose 10 mg/kg, plasma; read-out: MRT(0-∞)

| structure as smiles | MRT inf / h |
| --- | --- |
| CS(=O)(=O)C1CN(Cc2ccc(-c3cccc4nc(NC(=O)C5CC5)cn34)cc2)C1 | 1.7 |

###

Test: Oral pharmacokinetic determination in mice
Type: in vivo, C57 mice
Details: mouse; male C57 mice, oral (gavage), dose 10 mg/kg, plasma
parameter: AUC(0-t) (µg·h/mL)

| molecule | parameter | obs value |
| --- | --- | --- |
| CS(=O)(=O)C1CN(Cc2ccc(-c3cccc4nc(NC(=O)C5CC5)cn34)cc2)C1 [Compound 15] | AUC(0-t) | 9.75 |

###

Assay: Oral pharmacokinetic determination in mice
Assay type: in vivo, C57 mice
Conditions: mouse; male C57 mice, oral, dose 5 mg/kg, plasma

| compound | unit info | AUC(0-inf) |
| --- | --- | --- |
| O=C(Nc1nc2cccc(-c3ccc(CN4CCS(=O)(=O)CC4)cc3)n2n1)C1CC1 [Filgotinib, reference compound] | ng·h/mL | 2190 |

###

Experiment: Oral pharmacokinetic determination in mice
Type: in vivo, C57 mice
Settings: mouse; male C57 mice, oral, dose 5 mg/kg, plasma; read-out: MRT(0-∞)

| molecule | MRT inf, h |
| --- | --- |
| O=C(Nc1nc2cccc(-c3ccc(CN4CCS(=O)(=O)CC4)cc3)n2n1)C1CC1 [Filgotinib, reference compound] | 1.82 |

###

Target: JAK1 (Homo sapiens (Human))
Sequence (P23458 866-1154): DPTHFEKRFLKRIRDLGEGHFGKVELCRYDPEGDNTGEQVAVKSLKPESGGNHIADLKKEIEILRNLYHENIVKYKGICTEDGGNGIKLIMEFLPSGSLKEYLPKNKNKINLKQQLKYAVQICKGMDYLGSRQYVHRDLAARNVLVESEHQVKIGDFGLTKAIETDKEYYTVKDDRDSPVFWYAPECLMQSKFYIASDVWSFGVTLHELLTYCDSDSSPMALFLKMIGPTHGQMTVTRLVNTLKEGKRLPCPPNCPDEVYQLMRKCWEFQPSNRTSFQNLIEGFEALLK
pIC50: −log10 of the molar value.
Listing of recorded pIC50 by entry.

| compound | pIC50 |
| --- | --- |
| O=C(Nc1nc2cccc(-c3ccc(OC4CCS(=O)(=O)CC4)cc3)n2n1)C1CC1 | 6.74 |
| CCCC(CC#N)n1cc(-c2cccc3nc(NC(=O)C4CC4)cn23)cn1 (stereo not drawn) | 7.85 |
| CCS(=O)(=O)C1CCN(Cc2ccc(-c3cccc4nc(NC(=O)C5CC5)cn34)cc2)CC1 | 6.41 |
| N#CCC(C1CC1)n1cc(-c2cccc3nc(NC(=O)C4CC4)cn23)cn1 (stereo not drawn) | 7.11 |
| N#CCC(CC1CC1)n1cc(-c2cccc3nc(NC(=O)C4CC4)cn23)cn1 (stereo not drawn) | 7.42 |
| CC(C)CS(=O)(=O)C1CCN(Cc2ccc(-c3cccc4nc(NC(=O)C5CC5)cn34)cc2)CC1 | 6.17 |

###

Experiment: Oral pharmacokinetic determination in mice
Format: in vivo, C57 mice
Conditions: mouse; male C57 mice, oral (gavage), dose 10 mg/kg, plasma

| compound | unit info | Cmax |
| --- | --- | --- |
| CS(=O)(=O)C1CN(Cc2ccc(-c3cccc4nc(NC(=O)C5CC5)cn34)cc2)C1 [Compound 15] | ng/mL | 6220 |

###

Listing of recorded IC50 by entry.
Target: JAK1 (Homo sapiens (Human))

| molecule | IC50 [nM] |
| --- | --- |
| O=C(Nc1nc2cccc(-c3ccc(CN4CCS(=O)(=O)CC4)cc3)n2n1)C1C[C@H]1F (some centres unmarked) [Compound 26] | 1250 |
| N#CCC1(n2cc(-c3cccc4nc(NC(=O)C5CC5)cn34)cn2)CCC(C(F)(F)F)CC1 (centres unmarked) [Compound 13] | 8.4 |
| O=C(Nc1cn2c(-c3ccc(ON4CC[S+]([O-])CC4)cc3)cccc2n1)C1CC1 [Compound 21] | 247 |
| N#CCC(C1CCCC1)n1cc(-c2cccc3nc(NC(=O)C4CC4)cn23)cn1 (centres unmarked) [Compound 1] | 57.6 |
| COCC(CC#N)n1cc(-c2cccc3nc(NC(=O)C4CC4)cn23)cn1 (centres unmarked) [Compound 6] | 48.9 |
| N#CCC1(n2cc(-c3cccc4nc(NC(=O)C5CC5)cn34)cn2)CCCCC1 [Compound 14] | 115 |
| O=C(Nc1nc2cccc(-c3ccc(CN4CCS(=O)(=O)CC4)cc3)n2n1)C1C[C@@H]1F (some centres unmarked) [Compound 27] | 1080 |
| N#CCC(C1CCCC1)n1cc(-c2cccc3nc(NC(=O)C4CC4)nn23)cn1 (centres unmarked) [Compound 11] | 36.6 |
